B1: tRNA (parent)
chain: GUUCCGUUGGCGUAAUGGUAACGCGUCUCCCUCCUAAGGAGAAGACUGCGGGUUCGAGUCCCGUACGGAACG

Variants of: B1
Assay: yeast fitness, log relative to wild type (ln ratio); higher = fitter; tRNA-Arg(CCU), competitive growth, 37 C, 1 M NaCl
experimental_readout: yeast fitness (ln)
No unit in the answer, please; the number alone is enough.

Ask: Field request: yeast fitness (ln) | item: ACUCCGUUGGCGUAAUGGUAACGCGUUUCCCUCCUAAGGAGACGACUGCGGGUUCGAGUCCCGUAUGGGGUG [G1A U2C C27U A43C C66U A69G A70G C71U]
Result: -0.21
